# Test system: multi-drug resistant ovarian cancer cell line NCI/ADR-RES
# Protocol summary: Cell growth assay on NCI/ADR-RES cells
# Assay type: cell-based
# Setup conditions: Homo sapiens, NCI/ADR-RES; therapeutic drug with Rifabutin, ADR-RES; read-out: IC50 (μM) with Rifabutin
Reported property: IC50 (µM)
# number only, unit µM dropped from output

Lab note: compound COc1cccc2c1C(=O)c1c(O)c3c(c(O)c1C2=O)C[C@@](O)(C(=O)CO)C[C@@H]3O[C@H]1C[C@H](N)[C@H](O)[C@H](C)O1 [Doxorubicin, doxorubicin] tested on multi-drug resistant ovarian cancer cell line NCI/ADR-RES; recorded IC50 was 6.59

Hello, the source for this data is patent US20150017673A1, in case you need it.
